For each of the compounds below, state its GI50.
# System: EKVX
# assay.summary: NCI tumour cell line growth inhibition, 48 h
Activity calls are given as the source filed them. Rule as the data show it: active = GI50 up to about 1.1 µM and inactive = higher.

compound	system.under.test	GI50
CCCCCCCCCC(=O)OCC1OC(n2cc(F)c(=O)[nH]c2=O)C(NC(=O)OCc2ccccc2)C(OC(=O)CCCCCCCCC)C1O (stereo not given)	EKVX	31.6 µM (inactive)
O=C(O)CCCCCOc1cccnc1/C=N/NC1=NCCN1	EKVX	> 100 µM (inactive)
COC(=O)c1nc(N)nc(O)c1-c1ccc(Cl)cc1	EKVX	> 100 µM (inactive)
COc1ccc(N2C(=O)C(=O)N(C)C2=O)c2ccccc12	EKVX	> 10 µM (inactive)

**Q:** GI50 for "O=C(O)COc1cc(-c2ccccc2F)nc2cc3c(cc12)OCO3" ?
**A:** > 100 µM (inactive)
